Tested on: CH1R
Protocol Summary: Cell proliferation, cisplatin-resistant human cancer cell line CH1R
Type: cell-based
Details: CH1R; read-out: concentration necessary to achieve a 50% decrease in cell proliferation
pIC50: −log10 of the molar value.
Readout Kind: pIC50

Compound: Cc1cc(C)[n+]([Pt-2]([NH3+])([Cl])[Cl])[nH]1
Recorded Value: 5.42
--
Compound: Cc1cc(C)[n+]([Pt-2]([NH3+])([Cl])[Cl])o1
Recorded Value: 5.10
--
Compound: CCCC(=O)[O][Pt]([NH2])([Cl])([Cl])([NH]C1CCCCC1)[O]C(=O)CCC [reference compound]
Recorded Value: 7.62
--
Compound: Cc1cc(C)[n+]([Pt-2]([NH3+])([OH])([OH])([Cl])[Cl])[nH]1
Recorded Value: 5.30
--
Compound: Cc1[nH]cc[n+]1[Pt-2]([NH3+])([Cl])[Cl]
Recorded Value: 4.90
--
Compound: Cc1n(C)cc[n+]1[Pt-2]([NH3+])([OH])([OH])([Cl])[Cl]
Recorded Value: 4.78
--
Compound: N.N.[Cl][Pt][Cl] [cisplatin, [PtCl2(NH3)2], reference compound]
Recorded Value: 6.15
--
Compound: Cc1ncc[n+]([Pt-2]([NH3+])([Cl])[Cl])c1C
Recorded Value: 5.27
--
Compound: Cn1cc[n+]([Pt-2]([NH3+])([OH])([OH])([Cl])[Cl])c1
Recorded Value: 4.61
--
Compound: Cc1oc(C)[n+]([Pt-2]([NH3+])([Cl])[Cl])c1C
Recorded Value: 5.03
--
Compound: [NH2][Pt]1([NH2])[O]C(=O)C2(CCC2)C(=O)[O]1 [carboplatin, reference compound]
Recorded Value: 5.22
--
Compound: Cc1n(C)cc[n+]1[Pt-2]([NH3+])([Cl])[Cl]
Recorded Value: 4.92
--
Compound: Cn1cc[n+]([Pt-2]([NH3+])([Cl])[Cl])c1
Recorded Value: 4.98
--
Compound: CC(=O)[O][Pt-2]([NH3+])([Cl])([Cl])([O]C(C)=O)[n+]1ccnc(C)c1C
Recorded Value: 4.52

* * *

Test system: A2780R
Protocol Summary: Cell proliferation, cisplatin-resistant human cancer cell line A2780R
Assay type: cell-based
Details: A2780R/A2780, in brackets
Description: The complexes of the invention were tested against human cancer cell lines grown in cell culture according to established testing procedures (described by Holford, et al., British J. Cancer 1998 77(3) 366-373). The results are given in concentrations (μM) necessary to achieve a 50% decrease in cell proliferation, with resistance factors in brackets for the cisplatin-resistant cell lines.
Classification field: label 1 = resistance factor at or over 5; label 0 = resistance factor under 5.

Compound: CC(=O)[O][Pt]([NH2])([Cl])([Cl])([NH]C1CCCCC1)[O]C(C)=O [reference compound]
Label Value: label 0
//
Compound: Cn1cc[n+]([Pt-2]([NH3+])([OH])([OH])([Cl])[Cl])c1
Label Value: label 0
//
Compound: Cc1cc(C)[n+]([Pt-2]([NH3+])([Cl])[Cl])n1C
Label Value: label 0
//
Compound: Cc1n(C)cc[n+]1[Pt-2]([NH3+])([OH])([OH])([Cl])[Cl]
Label Value: label 1
//
Compound: Cc1cc(C)[n+]([Pt-2]([NH3+])([Cl])[Cl])o1
Label Value: label 1
//
Compound: Cc1c[n+]([Pt-2]([NH3+])([OH])([OH])([Cl])[Cl])c(C)[nH]1
Label Value: label 1
//
Compound: Cc1cc(C)[n+]([Pt-2]([NH3+])([Cl])[Cl])[nH]1
Label Value: label 0
//
Compound: Cc1c[n+]([Pt-2]([NH3+])([Cl])[Cl])c(C)cn1
Label Value: label 1
//
Compound: Cc1oc(C)[n+]([Pt-2]([NH3+])([Cl])[Cl])c1C
Label Value: label 0
//
Compound: Cn1cc[n+]([Pt-2]([NH3+])([Cl])[Cl])c1
Label Value: label 0
//
Compound: Cc1n(C)cc[n+]1[Pt-2]([NH3+])([Cl])[Cl]
Label Value: label 0

* * *

Test system: CH1R
Protocol Summary: Cell proliferation, cisplatin-resistant human cancer cell line CH1R
Type: cell-based
Details: CH1R; read-out: concentration necessary to achieve a 50% decrease in cell proliferation

Compound: Cc1c[n+]([Pt-2]([NH3+])([Cl])[Cl])c(C)cn1 [Example 5]
Study Target: CH1R
IC50 (µM): 8

Compound: CC(=O)[O][Pt]([NH2])([Cl])([Cl])([NH]C1CCCCC1)[O]C(C)=O [reference compound]
Study Target: CH1R
IC50 (µM): 0.4

Compound: Cc1cc(C)[n+]([Pt-2]([NH3+])([Cl])[Cl])n1C [Example 2]
Study Target: CH1R
IC50 (µM): 11

Compound: Cc1c[n+]([Pt-2]([NH3+])([OH])([OH])([Cl])[Cl])c(C)[nH]1 [Example 16]
Study Target: CH1R
IC50 (µM): 21

// provenance: patent US6894049B1
